Assign HACLHs relative activity to each entry below.
- TARGET_SYSTEM: HACLHs (Homo sapiens)
- Construct: His-tag (from vector pET-16b); made in house; host or cells: E. coli ArcticExpress (DE3)
- Sequence (Q9UJ83 whole entry): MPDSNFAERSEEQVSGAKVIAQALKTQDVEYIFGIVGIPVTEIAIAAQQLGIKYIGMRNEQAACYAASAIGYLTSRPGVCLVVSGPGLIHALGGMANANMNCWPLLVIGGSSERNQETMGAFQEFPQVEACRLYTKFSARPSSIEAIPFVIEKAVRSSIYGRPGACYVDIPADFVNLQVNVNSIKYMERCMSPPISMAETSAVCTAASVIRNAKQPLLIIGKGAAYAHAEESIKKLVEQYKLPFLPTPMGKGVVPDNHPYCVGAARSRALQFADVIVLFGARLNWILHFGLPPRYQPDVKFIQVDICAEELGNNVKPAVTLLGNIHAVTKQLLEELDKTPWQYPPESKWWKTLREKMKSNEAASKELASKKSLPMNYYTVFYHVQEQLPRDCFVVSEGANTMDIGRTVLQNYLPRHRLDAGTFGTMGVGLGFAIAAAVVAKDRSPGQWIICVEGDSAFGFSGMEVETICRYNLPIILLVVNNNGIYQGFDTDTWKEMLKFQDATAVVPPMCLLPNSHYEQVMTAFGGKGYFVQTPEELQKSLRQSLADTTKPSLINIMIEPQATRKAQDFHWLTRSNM
- PROTOCOL_DETAILS: Aldehyde and ketone screen with HACLHs (carboligation with formyl-CoA, LC-MS of CoA esters)
- Assay type: biochemical
- TEST_CONDITIONS: 10 mM aldehyde, 1 mM formyl-CoA, 5 μM enzyme, 1 h, relative to the comparison of OXC and HACL, n.d. = product not detected
Write the number in % without appending the unit.

Record CC(C)(COP(=O)(O)OP(=O)(O)OC[C@H]1O[C@@H](n2cnc3c(N)ncnc32)[C@H](O)[C@@H]1OP(=O)(O)O)[C@@H](O)C(=O)NCCC(=O)NCCSC(=O)C(O)CCC(=O)O (stereo partly drawn) [2-hydroxyglutaryl-CoA] , field HACLHs relative activity: 100

Record CC(C)(COP(=O)(O)OP(=O)(O)OC[C@H]1O[C@@H](n2cnc3c(N)ncnc32)[C@H](O)[C@@H]1OP(=O)(O)O)[C@@H](O)C(=O)NCCC(=O)NCCSC(=O)CO , field HACLHs relative activity: 11

Record CC(C)(COP(=O)(O)OP(=O)(O)OC[C@H]1O[C@@H](n2cnc3c(N)ncnc32)[C@H](O)[C@@H]1OP(=O)(O)O)[C@@H](O)C(=O)NCCC(=O)NCCSC(=O)C(O)c1ccccc1 (stereo partly drawn) , field HACLHs relative activity: 3
